B1: Osa-1-4 twister ribozyme (parent)
chain: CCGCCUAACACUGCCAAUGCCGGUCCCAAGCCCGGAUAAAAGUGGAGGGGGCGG

Variants of: B1
Test: self-cleavage, relative activity (ratio to wild type); higher = more cleavage; co-transcriptional
Please note: Fulfilled applies when self-cleavage is 0.4 or greater, and Not fulfilled applies otherwise.

> print(dat)
    mutations  class.assignment
 1   C9G G35U         Fulfilled
 2  C11G U18G         Fulfilled
 3  G49A G53A     Not fulfilled
 4  C25A G22A     Not fulfilled
 5  C52A U37C         Fulfilled
 6  G23A G44C     Not fulfilled
 7  A46U G42A     Not fulfilled
 8  C32G G30C     Not fulfilled
 9   A29G A8G     Not fulfilled
10  A29G A39U     Not fulfilled
11  G19C G23C     Not fulfilled
12  A39C G47A     Not fulfilled
13  G19U G42U     Not fulfilled
14  A36G C27A     Not fulfilled
15  A38U A41C         Fulfilled
16  C20A G44U         Fulfilled
17  G45A U18A         Fulfilled
18  C14A G47A     Not fulfilled
19   C9A G54A         Fulfilled
20  G50C G51A         Fulfilled
21  G51A U12A     Not fulfilled
22  A36C C31A     Not fulfilled
23  C31G G49U     Not fulfilled
24  A17U G19C         Fulfilled
25  A17U A46C     Not fulfilled
26  A39U G19A     Not fulfilled
27  G13A G48U     Not fulfilled
28  G22A G47C     Not fulfilled
29   A7C C11G     Not fulfilled
30  C26G G54U     Not fulfilled
